The values you see were collected from patent US12622878B2.

This section presents compounds with their documented pKa values.
Test: Measurement of Liposomal pKa (TNS fluorescence) of LNP without nucleic acid
Assay type: physicochemical
Conditions: cationic lipid:DOPC:Chol=52.5:7.5:40 + about 1.5 mol DMG-PEG2k, pH at which relative TNS fluorescence intensity was 50%

CCCCCCCC/C=C\CCCCCCCC(=O)Oc1ccc(CC(=O)OCCOC(=O)C(CSSCC(NC(=O)CN(CC)CC)C(=O)OCCOC(=O)Cc2ccc(OC(=O)CCCCCCC/C=C\CCCCCCCC)cc2)NC(=O)CN(CC)CC)cc1 (centres unmarked) : 6.3

# input Fill blank: measured pKa of the compound CCCCCCCC/C=C\CCCCCCCC(=O)Oc1ccc(CC(=O)OCCOC(=O)C(CSSCC(NC(=O)CN(C)CCC)C(=O)OCCOC(=O)Cc2ccc(OC(=O)CCCCCCC/C=C\CCCCCCCC)cc2)NC(=O)CN(C)CCC)cc1 (centres unmarked) is ____.
# output 5.9
